Cited source: patent US6781000B1

Recorded IC50 by entry
tested-system: chymotrypsin-like activity of 20S proteasome (Bos taurus, UniProt Q2TBX6+Q32KL2)
Construct: was purified to homogeneity from bovine brain according to published methods
assay-comment: 20S proteasome chymotryptic activity inhibition assay (Suc-Leu-Leu-Val-Tyr-AMC cleavage)
experimental-context: 2 μg 20S proteasome from bovine brain, 50 μM fluorogenic substrate, 15 minutes at 37° C., pH7.5

Sample records with IC50:
Task: State the recorded IC50 for this entry: `CC(C)C[C@@H](NC(=O)[C@H](Cc1ccc(-c2ccccc2)cc1)NC(=O)C(=O)Cc1c[nH]c2ccccc12)C(=O)N[C@H](C(=O)O)C(C)C`
Output: > 15.7 µM

Task: Tell me the measured IC50 of CC(C)CC(NC(=O)CNC(=O)C(=O)Cc1c[nH]c2ccccc12)C(=O)NC(Cc1ccc(O)cc1)C(=O)O (stereo not drawn) , please.
Output: > 18.6 µM

Task: Recorded IC50 of CC(C)CC(NC(=O)C(Cc1ccc(-c2ccccc2)cc1)NC(=O)C(=O)Cc1c[nH]c2ccccc12)C(=O)NC(CCCNC(=N)N)C(=O)O (stereo not drawn) , please.
Output: 4.31 µM

Task: What measured IC50 goes with `CC(C)C[C@@H](NC(=O)C(=O)Cc1c[nH]c2ccccc12)C(=O)N[C@H](CC(C)C)C(=O)NCc1ccccc1` ?
Output: > 19.3 µM

Task: Reported IC50, compound `CCCC[C@H](NC(=O)C(=O)Cc1c[nH]c2ccccc12)C(=O)N[C@H](CC(C)C)C(=O)N[C@@H](CO)C(=O)O` : ____
Output: > 19.4 µM

Further cases:
Task: Quick one: IC50 for CC(C)CC(NC(=O)C(=O)Cc1c[nH]c2ccccc12)C(=O)NC(CC(C)C)C(=O)NC(Cc1ccc(O)cc1)C(=O)O (stereo not drawn) ?
Output: > 16.9 µM

Task: What does the record list as IC50 for `CC(C)C[C@@H](NC(=O)[C@H](CC(=O)O)NC(=O)C(=O)Cc1c[nH]c2ccccc12)C(=O)N[C@H](C(=O)O)C(C)C` ?
Output: > 18.8 µM

Task: So what's the measured IC50 for this one? CCC(C)C(NC(=O)C(=O)Cc1c[nH]c2ccccc12)C(=O)NC(CC(C)C)C(=O)NC(C)C(=O)O (stereo not drawn)
Output: > 20 µM

Task: Entry `CC(C)C[C@@H](NC(=O)[C@@H](NC(=O)C(=O)Cc1c[nH]c2ccccc12)C(C)C)C(=O)NCC(=O)O` has what IC50?
Output: > 21.2 µM

###

tested-system: chymotrypsin-like activity of 20S proteasome (Bos taurus, UniProt Q2TBX6+Q32KL2)
Construct: was purified to homogeneity from bovine brain according to published methods; from tissue; host or cells: bovine brain
assay-comment: 20S proteasome chymotryptic activity inhibition assay (Suc-Leu-Leu-Val-Tyr-AMC cleavage)
Assay type: biochemical
experimental-context: 2 μg 20S proteasome from bovine brain, 50 μM fluorogenic substrate, 15 minutes at 37° C., pH7.5
compounds and their reported IC50 for the inhibition of the chymotrypsin-like activity of 20S proteasome

Task: Which IC50 for the inhibition of the chymotrypsin-like activity of 20S proteasome value belongs to CCCCC(NC(=O)C(CC(C)C)NC(=O)CCNC(=O)C(=O)Cc1c[nH]c2ccccc12)C(=O)O (centres unmarked) ?
Output: >10 µg/mL

Task: I am curious: what IC50 for the inhibition of the chymotrypsin-like activity of 20S proteasome value has been reported for CC(C)CC(NC(=O)C(=O)Cc1c[nH]c2ccccc12)C(=O)NC(CC(C)C)C(=O)NC(C)C(=O)O (centres unmarked) [Compound 35] ?
Output: >10 µg/mL

Task: # input compound: CC(C)CC(NC(=O)C(Cc1ccc(-c2ccccc2)cc1)NC(=O)C(=O)Cc1c[nH]c2ccccc12)C(=O)NC(CC(=O)O)C(=O)O (centres unmarked) [Compound 176] ; wanted: its IC50 for the inhibition of the chymotrypsin-like activity of 20S proteasome
Output: 1 µg/mL

Task: Endpoint output: IC50 for the inhibition of the chymotrypsin-like activity of 20S proteasome of CCCC(NC(=O)C(=O)Cc1c[nH]c2ccccc12)C(=O)NC(CC(C)C)C(=O)NC(C(=O)O)C(C)C (centres unmarked) [Compound 199] . Value?
Output: >10 µg/mL

Task: Consider the compound shown here: CC(C)CC(NC(=O)C(Cc1ccc(-c2ccccc2)cc1)NC(=O)C(=O)Cc1c[nH]c2ccccc12)C(=O)NCCC(=O)O (centres unmarked) What is its recorded IC50 for the inhibition of the chymotrypsin-like activity of 20S proteasome?
Output: 5 µg/mL

More entries:
Task: Look up IC50 for the inhibition of the chymotrypsin-like activity of 20S proteasome: CC(C)CC(NC(=O)C(Cc1ccc(-c2ccccc2)cc1)NC(=O)C(=O)Cc1c[nH]c2ccccc12)C(=O)NC(CCC(N)=O)C(=O)O (centres unmarked)
Output: >10 µg/mL

Task: Could you tell me which IC50 for the inhibition of the chymotrypsin-like activity of 20S proteasome is on file for CC(C)CC(NC(=O)C(Cc1ccccc1)NC(=O)C(=O)Cc1c[nH]c2ccccc12)C(=O)NCC(=O)O (centres unmarked) ?
Output: >10 µg/mL

Task: Any idea what its IC50 for the inhibition of the chymotrypsin-like activity of 20S proteasome is? The compound is CCCCC(NC(=O)C(=O)Cc1c[nH]c2ccccc12)C(=O)NC(CC(C)C)C(=O)NC(C)C(=O)O (centres unmarked)
Output: >10 µg/mL

Task: // returns reported IC50 for the inhibition of the chymotrypsin-like activity of 20S proteasome for input CCCC(NC(=O)C(=O)Cc1c[nH]c2ccccc12)C(=O)NC(CC(C)C)C(=O)NC(CO)C(=O)O (centres unmarked)
Output: >10 µg/mL

Task: Query (compound): CCCCC(NC(=O)C(CC(C)C)NC(=O)C(C)NC(=O)C(=O)Cc1c[nH]c2ccccc12)C(=O)O (centres unmarked) ; field requested: IC50 for the inhibition of the chymotrypsin-like activity of 20S proteasome
Output: >10 µg/mL

Task: Data request, read-out IC50 for the inhibition of the chymotrypsin-like activity of 20S proteasome, for CC(C)CC(NC(=O)C(CC1CCCCC1)NC(=O)C(=O)Cc1c[nH]c2ccccc12)C(=O)NC(CCC(=O)O)C(=O)O (centres unmarked)
Output: >10 µg/mL

Task: Please look up its IC50 for the inhibition of the chymotrypsin-like activity of 20S proteasome: CC(C)CC(NC(=O)CNC(=O)C(=O)Cc1c[nH]c2ccccc12)C(=O)NCC(=O)O (centres unmarked) [Compound 52]
Output: >10 µg/mL

Task: Please look up its IC50 for the inhibition of the chymotrypsin-like activity of 20S proteasome: CC(C)CC(NC(=O)C(CC1CCCCC1)NC(=O)C(=O)Cc1c[nH]c2ccccc12)C(=O)NC(C(=O)O)C(C)C (centres unmarked) [Compound 48]
Output: >10 µg/mL

Task: Need IC50 for the inhibition of the chymotrypsin-like activity of 20S proteasome of CC(C)C(NC(=O)C(NC(=O)C(NC(=O)C(=O)Cc1c[nH]c2ccccc12)C(C)C)C(C)C)C(=O)O (centres unmarked) , thanks.
Output: >10 µg/mL

###

IC50 for the inhibition of the chymotrypsin-like activity of 20S proteasome values for the compounds below.
tested-system: chymotrypsin-like activity of 20S proteasome (Bos taurus, UniProt Q2TBX6+Q32KL2)
Construct: was purified to homogeneity from bovine brain according to published methods; from tissue; host or cells: bovine brain
assay-comment: 20S proteasome chymotryptic activity inhibition assay (Suc-Leu-Leu-Val-Tyr-AMC cleavage)
Format: biochemical
experimental-context: 2 μg 20S proteasome from bovine brain, 50 μM fluorogenic substrate, 15 minutes at 37° C., pH7.5

Worked set:
Task: Would you kindly share the measured IC50 for the inhibition of the chymotrypsin-like activity of 20S proteasome for CC(C)CC(NC(=O)C(Cc1ccccc1)NC(=O)C(=O)Cc1c[nH]c2ccccc12)C(=O)NC(CO)C(=O)O (stereo not shown) ?
Output: >10 µg/mL

Task: Can you share its IC50 for the inhibition of the chymotrypsin-like activity of 20S proteasome? I mean this compound: CC(C)CC(NC(=O)CNC(=O)C(=O)Cc1c[nH]c2ccccc12)C(=O)NC(C)C(=O)O (stereo not shown)
Output: >10 µg/mL

Task: What value of measured IC50 for the inhibition of the chymotrypsin-like activity of 20S proteasome is listed for CC(C)CC(NC(=O)C(Cc1cccnc1)NC(=O)C(=O)Cc1c[nH]c2ccccc12)C(=O)NCC(=O)O (stereo not shown) [Compound 64] ?
Output: >10 µg/mL

Task: # get_value(readout='IC50 for the inhibition of the chymotrypsin-like activity of 20S proteasome', item= CCC(C)C(NC(=O)C(CC(C)C)NC(=O)C(CC(C)C)NC(=O)C(=O)Cc1c[nH]c2ccccc12)C(=O)O (stereo not shown) [Compound 34] )
Output: >10 µg/mL

Task: Look up IC50 for the inhibition of the chymotrypsin-like activity of 20S proteasome: CCCCC(NC(=O)C(=O)Cc1c[nH]c2ccccc12)C(=O)NC(CC(C)C)C(=O)NC(C(=O)O)C(C)C (stereo not shown)
Output: >10 µg/mL

Task: GET /values?readout=IC50 for the inhibition of the chymotrypsin-like activity of 20S proteasome&item= CC(C)CC(NC(=O)C(Cc1ccc(-c2ccccc2)cc1)NC(=O)C(=O)Cc1c[nH]c2ccccc12)C(=O)NC(Cc1c[nH]cn1)C(=O)O (stereo not shown) [Compound 196]
Output: >10 µg/mL

---
Task: If you can, please state the reported IC50 for the inhibition of the chymotrypsin-like activity of 20S proteasome value of CC(C)CC(NC(=O)C(CC1CCCCC1)NC(=O)C(=O)Cc1c[nH]c2ccccc12)C(=O)NC(C(=O)O)C(C)C (stereo not shown) [Compound 168] .
Output: >10 µg/mL
